target: protein farnesyltransferase (Rattus norvegicus, UniProt Q02293+Q04631); construct: The enzyme is purified according to Reiss, Y., et al., Cell, 62: 81-88 (1990), utilizing steps one through three; from tissue; host or cells: rat brain; experiment: Inhibition of farnesyltransferase (scintillation proximity assay, rat brain enzyme, biotin-K Ras B fragment substrate); assay type: biochemical; settings: 1 × 10^-6 M (Table 2)
Field: % inhibition of farnesyltransferase at 1 × 10^-6 M. Provide a value for each of the compounds that follow.
Kindly provide the numeric value in % only, without the unit symbol.

Measured % inhibition of farnesyltransferase at 1 × 10^-6 M (protein farnesyltransferase (Rattus norvegicus, UniProt Q02293+Q04631)), entry CSCC[C@H](NC(=O)c1ccc(CSCc2ccccc2C)cc1-c1ccccc1C)C(=O)[O-].[Li+] : 93

protein farnesyltransferase (Rattus norvegicus, UniProt Q02293+Q04631) % inhibition of farnesyltransferase at 1 × 10^-6 M of CSCC[C@H](NC(=O)c1ccc(COCCc2ccccc2)cc1-c1ccccc1C)C(=O)[O-].[Li+] is 97

Measured on protein farnesyltransferase (Rattus norvegicus, UniProt Q02293+Q04631), COc1ccc(CCOCc2ccc(C(=O)N[C@@H](CCSC)C(=O)O)c(-c3ccccc3C)c2)cc1 has a documented % inhibition of farnesyltransferase at 1 × 10^-6 M of 95

% inhibition of farnesyltransferase at 1 × 10^-6 M value, target or system protein farnesyltransferase (Rattus norvegicus, UniProt Q02293+Q04631), for CSCC[C@H](NC(=O)c1ccc(COC2(c3ccccc3)CCN(C(=O)OC(C)(C)C)CC2)cc1-c1ccccc1C)C(=O)[O-].[Li+] : 87

Note to self: % inhibition of farnesyltransferase at 1 × 10^-6 M of CSCC[C@H](NC(=O)c1ccc(OCCC2CCCCC2)cc1-c1ccccc1C)C(=O)[O-].[Li+] with protein farnesyltransferase (Rattus norvegicus, UniProt Q02293+Q04631) was 88

Hey, protein farnesyltransferase (Rattus norvegicus, UniProt Q02293+Q04631) data for CSCC[C@H](NC(=O)c1ccc(NC(=O)OCCCl)cc1-c1ccccc1)C(=O)O : % inhibition of farnesyltransferase at 1 × 10^-6 M came out at 26

# lookup: CSCC[C@H](NC(=O)c1ccc(CNc2ccc(C(O)(C(F)(F)F)C(F)(F)F)cc2)cc1-c1ccccc1)C(=O)O on protein farnesyltransferase (Rattus norvegicus, UniProt Q02293+Q04631), % inhibition of farnesyltransferase at 1 × 10^-6 M = 53

Let me check: CSCC[C@H](NC(=O)c1ccc(COCC2CCCO2)cc1-c1ccccc1)C(=O)O (some centres unmarked) , system protein farnesyltransferase (Rattus norvegicus, UniProt Q02293+Q04631), measured % inhibition of farnesyltransferase at 1 × 10^-6 M is 22

Recorded % inhibition of farnesyltransferase at 1 × 10^-6 M for CSCC[C@H](NC(=O)c1ccc(CNc2ccc(OC(F)(F)F)cc2)cc1-c1ccccc1)C(=O)O on protein farnesyltransferase (Rattus norvegicus, UniProt Q02293+Q04631) was 34

Record CSCC[C@H](NC(=O)c1ccc(CNc2ccc(-c3nc4ccccc4s3)cc2)cc1-c1ccccc1)C(=O)O has protein farnesyltransferase (Rattus norvegicus, UniProt Q02293+Q04631) % inhibition of farnesyltransferase at 1 × 10^-6 M equal to 40

Known value: protein farnesyltransferase (Rattus norvegicus, UniProt Q02293+Q04631) % inhibition of farnesyltransferase at 1 × 10^-6 M of the compound CSCC[C@H](NC(=O)c1ccc(CN(CC(C)C)C(CC2CCCCC2)CC2CCCCC2)cc1-c1ccccc1C)C(=O)O equals 88

Field % inhibition of farnesyltransferase at 1 × 10^-6 M (protein farnesyltransferase (Rattus norvegicus, UniProt Q02293+Q04631)), entry CSCC[C@H](NC(=O)c1ccc(NCC(CO)Cc2ccccc2)cc1-c1ccccc1C)C(=O)O (some centres unmarked) : 91

So the reported % inhibition of farnesyltransferase at 1 × 10^-6 M for CSCC[C@H](NC(=O)c1ccc(CNC(CC2CCCCC2)C(O)C(O)CC(C)C)cc1-c1ccccc1C)C(=O)O (some centres unmarked) , on protein farnesyltransferase (Rattus norvegicus, UniProt Q02293+Q04631), turned out to be 99

The reported protein farnesyltransferase (Rattus norvegicus, UniProt Q02293+Q04631) % inhibition of farnesyltransferase at 1 × 10^-6 M of CSCC[C@H](NC(=O)c1ccc(CN(CCO)Cc2ccccc2)cc1-c1ccccc1)C(=O)O is 72

% inhibition of farnesyltransferase at 1 × 10^-6 M on protein farnesyltransferase (Rattus norvegicus, UniProt Q02293+Q04631) for CSCC[C@H](NC(=O)c1ccc(OC/C=C(\C)CCC=C(C)C)cc1-c1ccccc1C)C(=O)O is 97

Record CSCC[C@H](NC(=O)c1ccc(CN[C@H](C)CC2CCCCC2)cc1-c1ccccc1C)C(=O)O has protein farnesyltransferase (Rattus norvegicus, UniProt Q02293+Q04631) % inhibition of farnesyltransferase at 1 × 10^-6 M equal to 97

GET /values?item= CCOC[C@H](CC1CCCCC1)OCc1ccc(C(=O)N[C@@H](CCSC)C(=O)O)c(-c2ccccc2C)c1 &system= protein farnesyltransferase (Rattus norvegicus, UniProt Q02293+Q04631) returns % inhibition of farnesyltransferase at 1 × 10^-6 M: 99

Lab note: compound CSCC[C@H](NC(=O)c1ccc(OCCCCOc2ccccc2)cc1-c1ccccc1C)C(=O)O tested on protein farnesyltransferase (Rattus norvegicus, UniProt Q02293+Q04631); recorded % inhibition of farnesyltransferase at 1 × 10^-6 M was 93

Log: protein farnesyltransferase (Rattus norvegicus, UniProt Q02293+Q04631), compound CSCC[C@H](NC(=O)c1ccc(NCC(CO)CC2CCCCC2)cc1-c1ccccc1C)C(=O)O (some centres unmarked) , % inhibition of farnesyltransferase at 1 × 10^-6 M = 95

For CSCC[C@H](NC(=O)c1ccc(OCCC23CC4CC(CC(C4)C2)C3)cc1-c1ccccc1C)C(=O)O on protein farnesyltransferase (Rattus norvegicus, UniProt Q02293+Q04631), measured % inhibition of farnesyltransferase at 1 × 10^-6 M was 92

Log: protein farnesyltransferase (Rattus norvegicus, UniProt Q02293+Q04631), compound CSCC[C@H](NC(=O)c1ccc(NC(=O)C2CCC(=O)N2)cc1-c1ccccc1)C(=O)O (some centres unmarked) , % inhibition of farnesyltransferase at 1 × 10^-6 M = 31

% inhibition of farnesyltransferase at 1 × 10^-6 M of CSCC[C@H](NC(=O)c1ccc(CNc2ccc(S(=O)(=O)Nc3onc(C)c3C)cc2)cc1-c1ccccc1C)C(=O)O , assay on protein farnesyltransferase (Rattus norvegicus, UniProt Q02293+Q04631), is 81

Observed % inhibition of farnesyltransferase at 1 × 10^-6 M, protein farnesyltransferase (Rattus norvegicus, UniProt Q02293+Q04631), CSCC[C@H](NC(=O)c1ccc(CN(CCc2ccccc2)C(C)C)cc1-c1ccccc1C)C(=O)O : 96

Tested system protein farnesyltransferase (Rattus norvegicus, UniProt Q02293+Q04631); % inhibition of farnesyltransferase at 1 × 10^-6 M recorded for CSCC[C@H](NC(=O)c1ccc(NCC2CNCCN2)cc1-c1ccccc1)C(=O)O (some centres unmarked) was 84

Observed % inhibition of farnesyltransferase at 1 × 10^-6 M on protein farnesyltransferase (Rattus norvegicus, UniProt Q02293+Q04631), entry CSCC[C@H](NC(=O)c1ccc(CN(Cc2ccccc2)c2ccccc2Cl)cc1-c1ccccc1C)C(=O)O , equals 85

COc1ccc(CC(=O)Nc2ccc(C(=O)N[C@@H](CCSC)C(=O)O)c(-c3ccccc3C)c2)cc1 on protein farnesyltransferase (Rattus norvegicus, UniProt Q02293+Q04631) gives % inhibition of farnesyltransferase at 1 × 10^-6 M = 67

Entry CSCC[C@H](NC(=O)c1ccc(COCc2ccccc2)cc1-c1ccccc1C)C(=O)NS(=O)(=O)c1ccc(C)cc1 , tested on protein farnesyltransferase (Rattus norvegicus, UniProt Q02293+Q04631), has a reported % inhibition of farnesyltransferase at 1 × 10^-6 M of 99

Form field % inhibition of farnesyltransferase at 1 × 10^-6 M for item CSCC[C@H](NC(=O)c1ccc(CN(C(=O)OC(C)(C)C)C(CC2CCCCC2)CC2CCCCC2)cc1-c1ccccc1C)C(=O)O on protein farnesyltransferase (Rattus norvegicus, UniProt Q02293+Q04631): 35

Per the reported protein farnesyltransferase (Rattus norvegicus, UniProt Q02293+Q04631) data, CSCCC(NC(=O)c1ccc(NC(=O)Cc2cscn2)cc1-c1ccccc1)C(=O)O (centres unmarked) has % inhibition of farnesyltransferase at 1 × 10^-6 M of 12
